Consider the following sequences and their measured protein stability index readings.
assay: protein stability index of a GFP-peptide fusion (GPS, HEK-293T) (PSI 1-6); higher = more stable; conditions: treatment: MLN4924 1 uM, 8 h; c terminus: a fixed tail appended;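 further: 24-mer peptide tiles fused after GFP, lentivirally expressed, FACS-sorted into six equal bins by GFP/DsRed ratio, decoded by Illumina sequencing, PSI is the read-weighted mean bin number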

# annotated cases, reported protein stability index shown
item.sequence: ENQRENLEQPFLSVFKKGRRRVPV [PLEKHN1]
protein stability index: 3.46
--
item.sequence: RAPACSPEAAAAQLRATAGSLILP [FCHO1]
protein stability index: 3.15
--
item.sequence: VLEYRRTNFEGPPRLKEDQPWMVI [FSD1]
protein stability index: 2.35

Query: Provide one value: measured protein stability index of EYMKNLLKVGGILVMPLEEKLTKI [PCMTD2]
Reply: 2.13

Query: Please report the measured protein stability index for NGADVNIQSKDGKSPLHMTAVHGR [ANKRD44]
Reply: 4.46

Query: Fill in reported protein stability index for this entry: YGSDQQHHLGSGSGAGGTGGPAGQ [MYOZ1]
Reply: 4.77

Query: Query protein stability index for SFTLADVSLAVTLHRLKFLGFARR [GDAP1]
Reply: 2.33
